tested on: Dipeptidyl Peptidase IV (DP IV, CD26); assay: Inhibition of DP IV (CD26) proteinase activity, Ki; assay type: biochemical; details: soluble DP IV (CD26)
recorded endpoint: DP IV inhibition

CC(N)C(=O)N1CCCC1B(O)O [L-Ala-D,L-boroPro]	potent inhibitors
O=C(C1CCCN1)N1CCCC1B(O)O [L-Pro-D,L-boroPro]	potent inhibitors
